- System: human glucokinase (GK) (Homo sapiens, UniProt P35557)
- Construct: Full-length human hepatic GK (untagged) was expressed in BL21 STAR (DE3)pLysS cells; made in house; host or cells: E. coli BL21 STAR (DE3)pLysS
- Sequence (P35557 1-466 isoform P35557-2): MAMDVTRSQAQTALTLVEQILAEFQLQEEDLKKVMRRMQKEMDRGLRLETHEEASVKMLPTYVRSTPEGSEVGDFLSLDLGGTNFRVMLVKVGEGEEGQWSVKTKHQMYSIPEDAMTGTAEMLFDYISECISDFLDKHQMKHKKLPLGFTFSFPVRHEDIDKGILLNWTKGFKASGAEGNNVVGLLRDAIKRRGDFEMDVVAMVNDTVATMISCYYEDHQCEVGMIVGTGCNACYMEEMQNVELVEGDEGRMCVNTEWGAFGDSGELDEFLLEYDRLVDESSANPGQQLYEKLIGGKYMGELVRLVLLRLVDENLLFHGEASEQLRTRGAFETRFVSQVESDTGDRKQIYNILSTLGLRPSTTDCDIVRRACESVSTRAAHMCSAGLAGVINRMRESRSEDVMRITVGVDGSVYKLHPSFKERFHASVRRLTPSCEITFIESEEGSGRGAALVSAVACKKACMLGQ
- Experiment Notes: Glucokinase tandem enzymatic assay
- Format: biochemical
- Experimental Conditions: 12 mM glucose; expressed as % of basal activation; EC50 could not be calculated from the activation curves; read-out: Maximal activation (%) Human Glucokinase @ 12 mM Glucose
Test Readout: Emax (%)

Compound	Test Readout	Numeric Result
CCOP(=O)(Cc1csc(NC(=O)c2cc(OCC(F)(F)c3ccccc3)cc(OC(C)C)c2)n1)OCC [Example 123]	Emax	135
CCOP(=O)(Cc1csc(NC(=O)Cc2ccc(OC)cc2OC)n1)OCC [Example 74]	Emax	142
CCOP(=O)(Cc1csc(NC(=O)c2nn(CC3CC3)c3cc(S(C)(=O)=O)ccc23)n1)OCC [Example 86]	Emax	141
CCOP(=O)(Cc1csc(NC(=O)c2cc(OCC(O)c3ccccc3)cc(OC(C)C)c2)n1)OCC (centres unmarked) [Example 121]	Emax	126
CCOP(=O)(Cc1csc(NC(=O)c2cc(CN3CCOC3=O)cc(OC)c2)n1)OCC [Example 65]	Emax	162
CCOP(=O)(Cc1csc(NC(=O)c2ccc3c(c2)OCCO3)n1)OCC [Example 79]	Emax	133
CCOP(=O)(/C=C/c1cnc(NC(=O)[C@H](CC2CCCC2)c2ccc(S(C)(=O)=O)cc2)s1)OCC [Example 35]	Emax	133
CCOP(=O)(CS(=O)(=O)c1cnc(NC(=O)[C@H](CC2CCCC2)c2ccc(S(C)(=O)=O)cc2)s1)OCC [Example 23]	Emax	150

Attribution: patent US7910747B2
